The measured values listed here are drawn from paper PMC10247784.

- Experimental target: human TAS2R1 (Homo sapiens, UniProt Q9NYW7)
- Construct: expressed in transfected cells; host or cells: HEK293T-Gα16gust44
- Protocol details: Calcium imaging assay (FLIPR), HEK293T-Gα16gust44 cells transfected with human TAS2R1
- Assay type: cell-based
- Condition notes: Time 34.781 s
Kindly state RLU for each of the entries shown.
One number for each entry, in RLU.

Working through the 3 compounds below one at a time, give RLU for each.
1. C[C@H](CCC(=O)O)[C@H]1CC[C@H]2[C@@H]3CC[C@@H]4C[C@H](O)CC[C@]4(C)[C@H]3C[C@H](O)[C@]12C [Deoxycholic Acid, deoxycholic acid]
2. C[C@H](CCC(=O)NCCS(=O)(=O)O)[C@H]1CC[C@H]2[C@@H]3CC[C@@H]4C[C@H](O)CC[C@]4(C)[C@H]3CC[C@]12C [Taurolithocholic Acid, taurolithocholic acid]
3. C[C@H](CCC(=O)NCCS(=O)(=O)O)[C@H]1CC[C@H]2[C@@H]3[C@H](O)C[C@@H]4C[C@H](O)CC[C@]4(C)[C@H]3C[C@H](O)[C@]12C [Taurocholic Acid, taurocholic acid]

stdout:
1. 265.794
2. 337.182
3. 248.838

stdin: Reported RLU for C[C@H](CCC(=O)NCC(=O)O)[C@H]1CC[C@H]2[C@@H]3[C@H](O)C[C@@H]4C[C@H](O)CC[C@]4(C)[C@H]3C[C@H](O)[C@]12C [Glycocholic Acid, glycocholic acid] : what is it?
stdout: 379.127

====

Assign EC50 to each entry below.
- Experimental target: human TAS2R1 (Homo sapiens, UniProt Q9NYW7)
- Sequence (Q9NYW7 1-299): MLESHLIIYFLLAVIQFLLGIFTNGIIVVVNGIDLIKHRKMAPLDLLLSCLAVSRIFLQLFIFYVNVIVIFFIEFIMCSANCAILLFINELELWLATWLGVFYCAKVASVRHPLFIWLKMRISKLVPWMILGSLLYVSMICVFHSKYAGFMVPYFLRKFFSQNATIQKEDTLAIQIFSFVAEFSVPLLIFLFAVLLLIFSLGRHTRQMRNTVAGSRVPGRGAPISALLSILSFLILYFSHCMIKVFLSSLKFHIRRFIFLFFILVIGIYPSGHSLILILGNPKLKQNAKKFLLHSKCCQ
- Protocol details: Calcium imaging assay (FLIPR), HEK293T-Gα16gust44 cells transfected with human TAS2R1
- Condition notes: calculated where receptor saturation was reached
Numbers only, in µM.

Mol	Measurement name	Unit symbol	Recorded value
C[C@H](CCC(=O)O)[C@H]1CC[C@H]2[C@@H]3CC[C@@H]4C[C@H](O)CC[C@]4(C)[C@H]3C[C@H](O)[C@]12C	EC50	µM	6.1

Next item in the queue.
stdin: EC50 lookup needed for C[C@H](CCC(=O)NCCS(=O)(=O)O)[C@H]1CC[C@H]2[C@@H]3CC[C@@H]4C[C@H](O)CC[C@]4(C)[C@H]3CC[C@]12C , thanks.
stdout: 1.9

====

- Experimental target: mouse Tas2r144 (Mus musculus)
- Construct: expressed in transfected cells; host or cells: HEK293T-Gα16gust44
- Sequence (Q7TQB8 whole entry): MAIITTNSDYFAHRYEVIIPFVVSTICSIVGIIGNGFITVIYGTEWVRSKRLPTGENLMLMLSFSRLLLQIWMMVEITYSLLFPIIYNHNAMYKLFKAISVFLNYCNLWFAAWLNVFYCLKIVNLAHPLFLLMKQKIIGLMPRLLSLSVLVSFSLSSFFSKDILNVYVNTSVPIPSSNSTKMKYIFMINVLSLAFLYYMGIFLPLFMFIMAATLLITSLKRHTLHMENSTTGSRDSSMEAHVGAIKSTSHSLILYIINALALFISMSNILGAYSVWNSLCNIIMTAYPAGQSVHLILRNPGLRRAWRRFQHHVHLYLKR
- Protocol details: Calcium imaging assay (FLIPR), HEK293T-Gα16gust44 cells transfected with mouse Tas2r144
- Assay type: cell-based
- Condition notes: Time 74.781 s
Could you please report measured RLU for the items listed next?
Numbers only, in RLU.

Some solved entries appear below for comparison.
Compound	Unit symbol	RLU
C[C@H](CCC(=O)O)[C@H]1CC[C@H]2[C@@H]3[C@H](O)C[C@@H]4C[C@H](O)CC[C@]4(C)[C@H]3C[C@H](O)[C@]12C [Cholic Acid, cholic acid]	RLU	647.263
C[C@H](CCC(=O)NCCS(=O)(=O)O)[C@H]1CC[C@H]2[C@@H]3CC[C@@H]4C[C@H](O)CC[C@]4(C)[C@H]3CC[C@]12C [Taurolithocholic Acid, taurolithocholic acid]	RLU	456.073
C[C@H](CCC(=O)NCCS(=O)(=O)O)[C@H]1CC[C@H]2[C@@H]3[C@H](O)C[C@@H]4C[C@H](O)CC[C@]4(C)[C@H]3C[C@H](O)[C@]12C [Taurocholic Acid, taurocholic acid]	RLU	563.961

Then there is this compound:
stdin: Fill blank: measured RLU of the compound C[C@H](CCC(=O)NCC(=O)O)[C@H]1CC[C@H]2[C@@H]3[C@H](O)C[C@@H]4C[C@H](O)CC[C@]4(C)[C@H]3C[C@H](O)[C@]12C [Glycocholic Acid, glycocholic acid] is ____.
stdout: 450.52

====

- Experimental target: human TAS2R14 (Homo sapiens)
- Construct: expressed in transfected cells; host or cells: HEK293T-Gα16gust44
- Sequence (Q9NYV8 whole entry): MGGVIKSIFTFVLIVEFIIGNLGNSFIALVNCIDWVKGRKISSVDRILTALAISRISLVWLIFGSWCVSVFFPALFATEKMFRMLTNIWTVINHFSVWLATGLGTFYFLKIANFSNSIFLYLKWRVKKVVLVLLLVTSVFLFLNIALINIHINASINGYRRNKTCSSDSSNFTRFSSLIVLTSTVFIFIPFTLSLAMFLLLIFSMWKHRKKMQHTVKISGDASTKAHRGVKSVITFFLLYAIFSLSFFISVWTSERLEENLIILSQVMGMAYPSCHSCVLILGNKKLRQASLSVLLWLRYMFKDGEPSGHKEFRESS
- Protocol details: Calcium imaging assay (FLIPR), HEK293T-Gα16gust44 cells transfected with human TAS2R14
- Format: cell-based
- Condition notes: TAS2R14 trace; Time (s) 106.797 (Chenodeoxycholic Acid 106.781)
Please respond with reported RLU for every item in the list.
Entry format: amount then unit.

Recorded results for 2 compounds are shown here.
Mol	RLU
C[C@H](CCC(=O)NCCS(=O)(=O)O)[C@H]1CC[C@H]2[C@@H]3CC[C@@H]4C[C@H](O)CC[C@]4(C)[C@H]3CC[C@]12C	338.946 RLU
C[C@H](CCC(=O)NCCS(=O)(=O)O)[C@H]1CC[C@H]2[C@@H]3[C@H](O)C[C@@H]4C[C@H](O)CC[C@]4(C)[C@H]3C[C@H](O)[C@]12C	886.141 RLU

Switching to the query record.
stdin: // returns reported RLU for input C[C@H](CCC(=O)NCC(=O)O)[C@H]1CC[C@H]2[C@@H]3[C@H](O)C[C@@H]4C[C@H](O)CC[C@]4(C)[C@H]3C[C@H](O)[C@]12C
stdout: 885.988 RLU

====

- Experimental target: human TAS2R4 (Homo sapiens, UniProt Q9NYW5)
- Construct: expressed in transfected cells; host or cells: HEK293T-Gα16gust44
- Sequence (Q9NYW5 whole entry): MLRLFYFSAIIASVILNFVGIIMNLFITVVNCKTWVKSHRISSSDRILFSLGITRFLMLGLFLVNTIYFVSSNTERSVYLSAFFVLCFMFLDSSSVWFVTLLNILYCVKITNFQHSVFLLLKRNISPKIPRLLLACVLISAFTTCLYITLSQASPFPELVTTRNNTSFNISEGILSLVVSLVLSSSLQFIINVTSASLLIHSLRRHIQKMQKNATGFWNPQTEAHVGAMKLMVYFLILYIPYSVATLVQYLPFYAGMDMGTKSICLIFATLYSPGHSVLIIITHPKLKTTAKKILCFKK
- Protocol details: Calcium imaging assay (FLIPR), HEK293T-Gα16gust44 cells transfected with human TAS2R4; also: test concentration or dose not given here
- Assay type: cell-based
- Condition notes: Time (s) 30.781 (TCA, TLCA: 30.782)
- Description: This set of bile acids was chosen because of their commercial availability in high purities, their diversity within the class of bile acids and their previous detection and quantitation in human blood. Stock solutions were prepared in DMSO. […] Measured data were negative control corrected by subtracting the signal of the mock-transfected cells and exported to Microsoft Excel using the FLIPR software ScreenWorks 4.2. […]
Measurement name: RLU, fluorescence trace (RLU)
One number for each entry, in RLU.

Molecule	Experimental target	Unit symbol	RLU, fluorescence trace
C[C@H](CCC(=O)O)[C@H]1CC[C@H]2[C@@H]3[C@H](O)C[C@@H]4C[C@H](O)CC[C@]4(C)[C@H]3C[C@H](O)[C@]12C [Cholic Acid, cholic acid]	human TAS2R4 (Homo sapiens, UniProt Q9NYW5)	RLU	202.767
C[C@H](CCC(=O)NCC(=O)O)[C@H]1CC[C@H]2[C@@H]3[C@H](O)C[C@@H]4C[C@H](O)CC[C@]4(C)[C@H]3C[C@H](O)[C@]12C [Glycocholic Acid, glycocholic acid]	human TAS2R4 (Homo sapiens, UniProt Q9NYW5)	RLU	388.704

Now for another entry.
stdin: Suppose we examine the molecule C[C@H](CCC(=O)O)[C@H]1CC[C@H]2[C@@H]3CC[C@@H]4C[C@H](O)CC[C@]4(C)[C@H]3C[C@H](O)[C@]12C [Deoxycholic Acid, deoxycholic acid] ; what RLU, fluorescence trace value has been reported?
stdout: 89.531

====

- Experimental target: human TAS2R14 (Homo sapiens)
- Construct: expressed in transfected cells; host or cells: HEK293T-Gα16gust44
- Protocol details: Calcium imaging assay (FLIPR), HEK293T-Gα16gust44 cells transfected with human TAS2R14
- Assay type: cell-based
- Condition notes: TAS2R14 trace; Time (s) 2 (Taurocholic Acid 2.016)
- Protocol: This set of bile acids was chosen because of their commercial availability in high purities, their diversity within the class of bile acids and their previous detection and quantitation in human blood. Stock solutions were prepared in DMSO. […] Measured data were negative control corrected by subtracting the signal of the mock-transfected cells and exported to Microsoft Excel using the FLIPR software ScreenWorks 4.2. […]
Field: RLU. Provide a value for each of the compounds that follow.
Give bare numbers, in RLU.

Use these answered entries as a reference point.
Mol	RLU [RLU]
C[C@H](CCC(=O)NCCS(=O)(=O)O)[C@H]1CC[C@H]2[C@@H]3CC[C@@H]4C[C@H](O)CC[C@]4(C)[C@H]3CC[C@]12C	5.076
C[C@H](CCC(=O)NCC(=O)O)[C@H]1CC[C@H]2[C@@H]3[C@H](O)C[C@@H]4C[C@H](O)CC[C@]4(C)[C@H]3C[C@H](O)[C@]12C	-6.072

From here, focus on the item given below.
stdin: For the compound shown here, C[C@H](CCC(=O)O)[C@H]1CC[C@H]2[C@@H]3[C@H](O)C[C@@H]4C[C@H](O)CC[C@]4(C)[C@H]3CC[C@]12C , give the reported RLU.
stdout: -49.1645
